Where do these numbers come from? They come from ChEMBL document CHEMBL3826929.

experiment summary: Tmax in cynomolgus monkey at 2 mg/kg, po
Assay type: ADME, organism-based, Macaca fascicularis
conditions used: in vivo
test readout: Tmax (min)

smiles_notation=COC(=O)N(CC(=O)O)Cc1cc(OCc2nc(-c3ccc(Cl)cc3)oc2C)ccc1F test_readout=Tmax assay_result=54

###

experiment summary: Tmax in Sprague-Dawley rat at 8 mg/kg, po
Assay type: ADME, organism-based
conditions used: in vivo
test readout: Tmax

smiles_notation=COC(=O)N(CC(=O)O)Cc1cc(OCc2nc(-c3ccc(Cl)cc3)oc2C)ccc1F test_readout=Tmax assay_result="18 min"

###

assay system: Peroxisome proliferator-activated receptor alpha (Homo sapiens)
Sequence (Q07869 whole entry, the tested form may be a part): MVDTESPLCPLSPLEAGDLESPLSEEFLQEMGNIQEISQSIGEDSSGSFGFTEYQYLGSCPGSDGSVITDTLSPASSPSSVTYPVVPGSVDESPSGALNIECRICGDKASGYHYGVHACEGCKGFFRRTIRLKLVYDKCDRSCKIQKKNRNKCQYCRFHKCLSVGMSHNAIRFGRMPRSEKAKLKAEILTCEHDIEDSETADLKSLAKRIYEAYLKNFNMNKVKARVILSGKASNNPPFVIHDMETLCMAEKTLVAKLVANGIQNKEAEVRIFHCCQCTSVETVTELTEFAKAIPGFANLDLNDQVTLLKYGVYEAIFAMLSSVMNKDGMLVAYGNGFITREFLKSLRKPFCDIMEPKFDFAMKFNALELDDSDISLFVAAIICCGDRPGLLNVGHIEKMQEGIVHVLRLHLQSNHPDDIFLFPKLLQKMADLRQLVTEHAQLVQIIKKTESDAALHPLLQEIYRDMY
experiment summary: Agonist activity at Gal4-tagged human PPAR-alpha expressed in HEK cells by transactivation assay
Type: cell-based, HEK293
test readout: EC50 (nM)

smiles_notation=COC(=O)N(CC(=O)O)Cc1cc(OCc2nc(-c3ccc(C)cc3)oc2C)ccc1F inequality_symbol== assay_result=2.8
smiles_notation=COc1ccc(OC(=O)N(CC(=O)O)Cc2cc(OCc3nc(-c4ccc(Cl)cc4)oc3C)ccc2F)cc1 inequality_symbol== assay_result=6.8
smiles_notation=CCOC(=O)N(CC(=O)O)Cc1cc(OCc2nc(-c3ccc(Cl)cc3)oc2C)ccc1F inequality_symbol== assay_result=4
smiles_notation=COC(=O)N(CC(=O)O)Cc1cc(F)cc(OCc2nc(-c3ccc(Cl)cc3)oc2C)c1 inequality_symbol== assay_result=18
smiles_notation=COC(=O)N(CC(=O)O)Cc1cc(OCc2nc(-c3ccc(S(C)(=O)=O)cc3)oc2C)ccc1F inequality_symbol=> assay_result=2500
smiles_notation=COC(=O)N(CC(=O)O)[C@@H](C)c1cccc(OCc2nc(-c3ccc(Cl)cc3)oc2C)c1 inequality_symbol== assay_result=8.6
smiles_notation=COC(=O)N(CC(=O)O)Cc1cc(OCc2nc(-c3ccc(C(F)(F)F)cc3)oc2C)ccc1F inequality_symbol== assay_result=3.6
smiles_notation=CCCOC(=O)N(CC(=O)O)Cc1cc(OCc2nc(-c3ccc(Cl)cc3)oc2C)ccc1F inequality_symbol== assay_result=3.4
smiles_notation=Cc1ccc(OC(=O)N(CC(=O)O)Cc2cc(OCc3nc(-c4ccc(Cl)cc4)oc3C)ccc2F)cc1 inequality_symbol== assay_result=5.6
smiles_notation=Cc1oc(-c2ccc(Cl)cc2)nc1COc1ccc(F)c(CN(CC(=O)O)C(=O)OCC(C)C)c1 inequality_symbol== assay_result=2.3
smiles_notation=COC(=O)N(CC(=O)O)Cc1cc(OCc2nc(-c3ccc(F)cc3)oc2C)ccc1F inequality_symbol== assay_result=14.5
smiles_notation=CCCCOC(=O)N(CC(=O)O)Cc1cc(OCc2nc(-c3ccc(Cl)cc3)oc2C)ccc1F inequality_symbol== assay_result=2.8
smiles_notation=COC(=O)N(CC(=O)O)Cc1cc(OCc2nc(-c3ccccc3)oc2C)ccc1F inequality_symbol== assay_result=59
smiles_notation=COC(=O)N(CC(=O)O)Cc1cc(OCc2nc(-c3ccc(OC(F)(F)F)cc3)oc2C)ccc1F inequality_symbol== assay_result=4.3
smiles_notation=COC(=O)N(CC(=O)O)Cc1ccc(F)c(OCc2nc(-c3ccc(Cl)cc3)oc2C)c1 inequality_symbol== assay_result=94
smiles_notation=COC(=O)N(CC(=O)O)Cc1cc(OCc2nc(-c3ccc(C(C)(C)C)cc3)oc2C)ccc1F inequality_symbol== assay_result=2.7
smiles_notation=Cc1oc(-c2ccc(Cl)cc2)nc1COc1ccc(F)c(CN(CC(=O)O)C(=O)OCCCF)c1 inequality_symbol== assay_result=10.6
